biological target: ATP-dependent translocase ABCB1 (Homo sapiens, UniProt P08183); assay: Inhibition of human ABCB1 expressed in mouse L5178Y cells assessed as increase in rhodamine-123 accumulation by measuring side scatter count of cells at 20 uM pretreated for 10 mins followed by rhodamine-123 addition after 20 mins by flow cytometry (reference value: 903); type: cell-based
Sequence (P08183 whole entry): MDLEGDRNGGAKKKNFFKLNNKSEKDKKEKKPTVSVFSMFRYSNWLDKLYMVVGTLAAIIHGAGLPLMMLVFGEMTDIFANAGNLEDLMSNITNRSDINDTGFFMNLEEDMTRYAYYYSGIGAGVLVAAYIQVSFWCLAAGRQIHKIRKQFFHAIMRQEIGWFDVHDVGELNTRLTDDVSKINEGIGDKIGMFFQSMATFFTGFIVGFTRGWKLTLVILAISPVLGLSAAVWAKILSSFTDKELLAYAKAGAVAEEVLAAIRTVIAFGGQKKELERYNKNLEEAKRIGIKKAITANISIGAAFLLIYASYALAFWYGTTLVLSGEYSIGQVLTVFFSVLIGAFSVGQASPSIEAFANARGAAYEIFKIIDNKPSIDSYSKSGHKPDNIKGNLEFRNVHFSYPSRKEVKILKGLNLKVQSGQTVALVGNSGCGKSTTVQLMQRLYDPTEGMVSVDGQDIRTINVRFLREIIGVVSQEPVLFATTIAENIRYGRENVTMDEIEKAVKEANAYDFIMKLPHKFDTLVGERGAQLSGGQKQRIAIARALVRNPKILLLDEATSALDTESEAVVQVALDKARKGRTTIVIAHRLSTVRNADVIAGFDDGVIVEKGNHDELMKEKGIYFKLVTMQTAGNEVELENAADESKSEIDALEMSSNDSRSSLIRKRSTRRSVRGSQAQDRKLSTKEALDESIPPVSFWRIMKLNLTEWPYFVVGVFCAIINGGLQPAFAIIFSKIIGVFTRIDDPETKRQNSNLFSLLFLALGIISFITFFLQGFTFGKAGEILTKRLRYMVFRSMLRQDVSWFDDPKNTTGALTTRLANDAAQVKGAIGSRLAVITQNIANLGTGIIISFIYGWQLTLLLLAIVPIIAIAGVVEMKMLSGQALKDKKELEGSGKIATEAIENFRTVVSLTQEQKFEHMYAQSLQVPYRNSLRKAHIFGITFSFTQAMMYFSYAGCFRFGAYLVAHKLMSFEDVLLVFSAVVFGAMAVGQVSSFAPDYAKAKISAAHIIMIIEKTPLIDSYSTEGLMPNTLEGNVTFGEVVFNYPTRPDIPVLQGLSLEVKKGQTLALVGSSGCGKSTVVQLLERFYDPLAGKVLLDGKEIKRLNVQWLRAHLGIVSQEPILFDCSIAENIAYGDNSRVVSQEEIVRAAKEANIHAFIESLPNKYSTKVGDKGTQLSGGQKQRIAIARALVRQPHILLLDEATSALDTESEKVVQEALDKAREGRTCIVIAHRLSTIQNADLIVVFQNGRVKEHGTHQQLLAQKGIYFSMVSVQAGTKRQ
quantity: Activity
Give the value as a plain number.

Here is how some molecules turned out for Activity.
[[record]]
molecule = "CC[C@@H]1CN(C)[C@H]2Cc3c([nH]c4ccccc34)[C@@H](O)C[C@H]1[C@@H]2C(=O)OC"
value_observed = 788

[[record]]
molecule = "CC[C@@H]1CN(C)[C@H]2Cc3c([nH]c4ccccc34)/C(=N/Nc3ccccc3)C[C@H]1[C@@H]2C(=O)OC"
value_observed = 955

[[record]]
molecule = "CC[C@H]1CN(C)[C@H]2Cc3c([nH]c4ccccc34)/C(=N/N)C[C@H]1[C@@H]2C(=O)OC"
value_observed = 1037

[[record]]
molecule = "CC[C@H]1CN(C)[C@H]2Cc3c([nH]c4ccccc34)/C(=N/NC(=S)NCc3cccnc3)C[C@H]1[C@@H]2C(=O)OC"
value_observed = 805

[[record]]
molecule = "COc1ccc(CCN(C)CCCC(C#N)(c2ccc(OC)c(OC)c2)C(C)C)cc1OC (configuration not stated)"
value_observed = 1078


input: # return recorded Activity for entry CC[C@@H]1CN(C)[C@H]2Cc3c([nH]c4ccccc34)/C(=N/Nc3ccc(Br)cn3)C[C@H]1[C@@H]2C(=O)OC
output: 765

input: # return recorded Activity for entry CC[C@H]1CN(C)[C@H]2Cc3c(n(C)c4ccccc34)C(=O)C[C@H]1[C@@H]2C(=O)OC
output: 1197

----------
target: UniProtKB P08183; experiment: Inhibition of human ABCB1 expressed in mouse L5178Y cells assessed as fluorescence activity ratio at 20 uM pretreated for 10 mins followed by rhodamine-123 addition after 20 mins by flow cytometry; assay type: cell-based
Hi! Could you tag entries with Ratio below 20 as fulfilled, and those at or above as not fulfilled? Much appreciated.

[[record]]
compound = "CC[C@H]1CN(C)[C@H]2Cc3c([nH]c4ccccc34)/C(=N/NC(N)=O)C[C@H]1[C@@H]2C(=O)OC"
tested_system = "UniProtKB P08183"
assigned_label = "fulfilled"

[[record]]
compound = "CC[C@H]1CN(C)[C@H]2Cc3c(n(Cc4ccccc4)c4ccccc34)C(=O)C[C@H]1[C@@H]2C(=O)OC"
tested_system = "UniProtKB P08183"
assigned_label = "not fulfilled"


input: hey, is Ratio for CC[C@H]1CN(C)[C@H]2Cc3c([nH]c4ccccc34)C(=O)C[C@H]1[C@@H]2C(=O)OC lower than 20 or not?
output: fulfilled

input: hey, is Ratio for CC[C@H]1CN(C)[C@H]2Cc3c(n(C(=O)c4cccc(C)c4)c4ccccc34)C(=O)C[C@H]1[C@@H]2C(=O)OC lower than 20 or not?
output: fulfilled

input: hey, is Ratio for CC[C@H]1CN(C)[C@H]2Cc3c([nH]c4ccccc34)/C(=N/O)C[C@H]1[C@@H]2C(=O)OC lower than 20 or not?
output: fulfilled

input: hey, is Ratio for CC[C@H]1CN(C)[C@H]2Cc3c(n(C)c4ccccc34)C(=O)C[C@H]1[C@@H]2C(=O)OC lower than 20 or not?
output: not fulfilled

input: hey, is Ratio for CC[C@H]1CN(C)[C@H]2Cc3c([nH]c4ccccc34)/C(=N/N)C[C@H]1[C@@H]2C(=O)OC lower than 20 or not?
output: not fulfilled

----------
target: ATP-dependent translocase ABCB1 (Homo sapiens, UniProt P08183); assay: Inhibition of human ABCB1 expressed in mouse L5178Y cells assessed as increase in rhodamine-123 accumulation by measuring side scatter count of cells at 20 uM pretreated for 10 mins followed by rhodamine-123 addition after 20 mins by flow cytometry (reference value: 903); type: cell-based
Quick rule: Activity of at least 1000 means 1.0, below that means 0.0.

Answered examples (6):
[[record]]
compound = "CC[C@H]1CN(C)[C@H]2Cc3c(n(CCN(CC)CC)c4ccccc34)C(=O)C[C@H]1[C@@H]2C(=O)OC"
assigned_label = 1.0

[[record]]
compound = "CC[C@H]1CN(C)[C@H]2Cc3c([nH]c4ccccc34)/C(=N/NC(N)=O)C[C@H]1[C@@H]2C(=O)OC"
assigned_label = 0.0

[[record]]
compound = "CC[C@H]1CN(C)[C@H]2Cc3c(n(Cc4ccccc4)c4ccccc34)C(=O)C[C@H]1[C@@H]2C(=O)OC"
assigned_label = 1.0

[[record]]
compound = "CC[C@@H]1CN(C)[C@H]2Cc3c([nH]c4ccccc34)[C@@H](OC(=O)C34CC5CC(CC(C5)C3)C4)C[C@H]1[C@@H]2C(=O)OC"
assigned_label = 1.0

[[record]]
compound = "CC[C@@H]1CN(C)[C@H]2Cc3c([nH]c4ccccc34)/C(=N/Nc3cnccn3)C[C@H]1[C@@H]2C(=O)OC"
assigned_label = 0.0

[[record]]
compound = "CC[C@@H]1CN(C)[C@H]2Cc3c([nH]c4ccccc34)/C(=N/NC(N)=O)C[C@H]1[C@@H]2C(=O)OC"
assigned_label = 0.0


Alright, here's another molecule for you.
input: Is it the case that CC[C@H]1CN(C)[C@H]2Cc3c(n(C(=O)c4cccc(C)c4)c4ccccc34)C(=O)C[C@H]1[C@@H]2C(=O)OC has Activity reaching or exceeding 1000?
output: 1.0

----------
The entries below come with measured Ratio values attached.
target: UniProtKB P08183; experiment: Inhibition of human ABCB1 expressed in mouse L5178Y cells assessed as fluorescence activity ratio at 2 uM pretreated for 10 mins followed by rhodamine-123 addition after 20 mins by flow cytometry; type: cell-based
Give the value as a plain number.

[[record]]
compound = "CC[C@H]1CN(C)[C@H]2Cc3c([nH]c4ccccc34)/C(=N/Nc3ccccc3)C[C@H]1[C@@H]2C(=O)OC"
value_observed = 8.84


input: # return recorded Ratio for entry CC[C@H]1CN(C)[C@H]2Cc3c([nH]c4ccccc34)/C(=N/NC(N)=O)C[C@H]1[C@@H]2C(=O)OC
output: 1.16

input: # return recorded Ratio for entry CC[C@@H]1CN(C)[C@H]2Cc3c([nH]c4ccccc34)/C(=N/O)C[C@H]1[C@@H]2C(=O)OC
output: 1.26

input: # return recorded Ratio for entry CC[C@H]1CN(C)[C@H]2Cc3c(n(C)c4ccccc34)C(=O)C[C@H]1[C@@H]2C(=O)OC
output: 1.81

input: # return recorded Ratio for entry C/C=C/C(=O)O[C@H]1C[C@@H]2[C@@H](CC)CN(C)[C@@H](Cc3c1[nH]c1ccccc31)[C@H]2C(=O)OC
output: 2.42

input: # return recorded Ratio for entry CC[C@H]1CN(C)[C@H]2Cc3c([nH]c4ccccc34)[C@@H](O)C[C@H]1[C@@H]2C(=O)OC
output: 1.03

----------
target: ATP-dependent translocase ABCB1 (Homo sapiens, UniProt P08183); test: Inhibition of human ABCB1 expressed in mouse L5178Y cells assessed as fluorescence activity ratio at 2 uM pretreated for 10 mins followed by rhodamine-123 addition after 20 mins by flow cytometry; assay type: cell-based
quantity: Ratio
Give the value as a plain number.

[[record]]
compound = "CC[C@H]1CN(C)[C@H]2Cc3c([nH]c4ccccc34)/C(=N/NC(=S)NCc3cccnc3)C[C@H]1[C@@H]2C(=O)OC"
quantity = "Ratio"
value_observed = 1.27

[[record]]
compound = "CC[C@@H]1CN(C)[C@H]2Cc3c([nH]c4ccccc34)/C(=N/Nc3ccccc3)C[C@H]1[C@@H]2C(=O)OC"
quantity = "Ratio"
value_observed = 5.49

[[record]]
compound = "CC[C@@H]1CN(C)[C@H]2Cc3c([nH]c4ccccc34)/C(=N/Nc3cnccn3)C[C@H]1[C@@H]2C(=O)OC"
quantity = "Ratio"
value_observed = 10.28


Query compound follows.
input: # return recorded Ratio for entry CC[C@H]1CN(C)[C@H]2Cc3c(n(CCN(CC)CC)c4ccccc34)C(=O)C[C@H]1[C@@H]2C(=O)OC
output: 2.56

----------
molecular target: ATP-dependent translocase ABCB1 (Homo sapiens); test: Inhibition of human ABCB1 expressed in mouse L5178Y cells assessed as fluorescence activity ratio at 20 uM pretreated for 10 mins followed by rhodamine-123 addition after 20 mins by flow cytometry; type: cell-based
The entries below come with measured Ratio values attached.
Give the value as a plain number.

Here is how some compounds turned out for Ratio.
[[record]]
compound = "CC[C@@H]1CN(C)[C@H]2Cc3c([nH]c4ccccc34)/C(=N/Nc3cnccn3)C[C@H]1[C@@H]2C(=O)OC"
quantity = "Ratio"
value_observed = 78.79

[[record]]
compound = "CC[C@H]1CN(C)[C@H]2Cc3c([nH]c4ccccc34)/C(=N/Nc3cnccn3)C[C@H]1[C@@H]2C(=O)OC"
quantity = "Ratio"
value_observed = 60.79

[[record]]
compound = "CC[C@@H]1CN(C)[C@H]2Cc3c([nH]c4ccccc34)/C(=N/Nc3ccccc3)C[C@H]1[C@@H]2C(=O)OC"
quantity = "Ratio"
value_observed = 59.65


Query compound follows.
input: # return recorded Ratio for entry CC[C@H]1CN(C)[C@H]2Cc3c([nH]c4ccccc34)/C(=N/NC(=S)NCc3cccnc3)C[C@H]1[C@@H]2C(=O)OC
output: 30.98

Numbers sourced from ChEMBL document CHEMBL4004848.
